Assay: folding stability dG unfold from trypsin proteolysis; higher = more stable
reported-endpoint: folding stability dG unfold (kcal/mol)
Output spec: scalar in kcal/mol, unitless text.

sequence-data: SAGMKKLPSEEERKKAEELAKKGELVIIIRLKNGEKLVIVVKSEEELKELLKKLPLEIEEIYVFKVKKKSAG [r5_481_TrROS_Hall]
folding stability dG unfold [kcal/mol]: 1.72

Alright, here's another sequence for you.
Specify measured folding stability dG unfold for SATKEIEIEVNGRKLRIRIERKEDGSIKITIELPGMSAEEVKEALRKLLPPDAKITVDEITVTEYREEPSAG [r14_370_TrROS_Hall] .
3.14

----------
Experiment: folding stability dG unfold (combined trypsin and chymotrypsin); higher = more stable
This listing pairs sequences with measured folding stability dG unfold.

Previously resolved entries follow.
sequence-data: SAGGDSVYIPGSISEAIDALRENPNKTVHIMSPDGYYIKITVKWDGDGDYKIDIKWQPPPPPPDPEDKSAGG [r13_56_TrROS]
test-value: 2.23 kcal/mol
--
sequence-data: SAGGSAGGSAGGKKKFGFLILVKNKDDEKLYLVEVPEELSLEEFLPDQEIDEEVIKKAIGSAGGSAGGSAGG [r17_412_TrMRF]
test-value: 0.724 kcal/mol

Specify measured folding stability dG unfold for SAGGSAGGSGVKAILDALPPDYTVTVEEEPSGDSYTITVTHPDGASPTLRIDGGGRGELRKALSAGGSAGGS [r12_174_TrMRF] .
-0.845 kcal/mol

----------
Assay: folding stability dG unfold (combined trypsin and chymotrypsin); higher = more stable
reported-endpoint: folding stability dG unfold (kcal/mol)
Output spec: scalar in kcal/mol, unitless text.

sequence-data: SAGGMIVEEETKPTPPLPDGTLVTESKVTIYINGKKITTTVKTTTLPDGTKVVETTLKGKKLKIILESAGGS [r16_448_JUSTAS]
reported-endpoint: folding stability dG unfold
test-value: 2.98
--
sequence-data: SAGGSAIIVIEIEMGGKPVPIMIPIPPNMPPEDAREEIKELAKQEVRDPDGKPVRVKIEVIPPPPESAGGSA [r15_246_TrROS]
reported-endpoint: folding stability dG unfold
test-value: 0.626
--
sequence-data: SAGGSAGGSGPELRPPDVPSTTVPLKVSPEEAKEILKELLGLPEDVEVPFGSIDPATGVITLVSAGGSAGGS [r12_815_JUSTAS]
reported-endpoint: folding stability dG unfold
test-value: 1.03
--
sequence-data: SAGGSAGGSAGGMKKKKLKEGVEIEFFREGDYLYVTTKIPETGKEETKKVKKVPKDIPLSAGGSAGGSAGGS [r10_240_JUSTAS]
reported-endpoint: folding stability dG unfold
test-value: 0.22
--
sequence-data: SAGGEISPEDIKELEIYPIPPEDAQKNGYIMIEIKGPGGKPIAQIMIPVRVPKVKDKDGKPMDLEDMNSAGG [r13_864_TrROS]
reported-endpoint: folding stability dG unfold
test-value: 1.32

Alright, here's another sequence for you.
Specify measured folding stability dG unfold for SAGGSAGGSAGPIVYPYGKYLVVYNPETGALVVVELDPDGKVKKVVVFGKDGPLVELDDASAGGSAGGSAGG [r17_385_TrMRF] .
3.14

----------
This listing pairs sequences with measured folding stability dG unfold.
Test: folding stability dG unfold (combined trypsin and chymotrypsin); higher = more stable
Output spec: scalar in kcal/mol, unitless text.

Previously resolved entries follow.
sequence-data: SAGKKITAEELAKKIAEELGLPEDAKVEVEEVDGTIYIRVEGYVIKITVKDGEITIEIKPAPASPEALKSAG [r5_190_TrROS_Hall]
test-value: 2.43

sequence-data: SAGGSADENGKPKPTLIIKIEVEHPNGQKFPLSFIFKSPEEAEEIANELANNGYEVNIRLMPLDQISAGGSA [r15_906_TrROS]
test-value: 1.55

sequence-data: SAGGEKEYVEVTLEIEIEIELEPGESAEEIARKLAEELGAEITEVRVERLPDGTVKITVTVRVKLPPSAGGS [r8_292_TrROS_Hall]
test-value: 2.98

Alright, here's another sequence for you.
Specify measured folding stability dG unfold for PKYVIKAVNPKVGEVKTIEVDDDPEKAIEALKALKKADPDIKFYISGVKSDELIEAAKEAGLEDLNFTEVES [r1_114_TrMRF] .
4.02

Data origin, for the record: the supplement of paper PMC12764529
